Numbers sourced from patent US7872052B2.

- target_of_assay: Recombinant active human SCCE (Homo sapiens, UniProt P49862)
- Sequence (P49862 30-253): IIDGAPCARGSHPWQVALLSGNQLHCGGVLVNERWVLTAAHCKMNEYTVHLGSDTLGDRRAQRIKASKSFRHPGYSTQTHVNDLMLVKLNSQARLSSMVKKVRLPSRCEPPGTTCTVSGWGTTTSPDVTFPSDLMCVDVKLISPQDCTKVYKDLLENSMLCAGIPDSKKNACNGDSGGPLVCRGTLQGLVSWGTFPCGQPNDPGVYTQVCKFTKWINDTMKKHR
- run_description: SCCE Inhibitor Test (chromogenic substrate S-2586, absorbance at 405 nm)
- run_parameters: 10 min preincubation, 1 mM S-2586, 60 min, 37° C, pH 7.2
assay_metric: IC50 (µM)

[1] O=c1oc(-c2ccccc2Cl)nc2sc3c(c12)CCC3
[2] CCc1cc2c(=O)oc(-c3ccc(F)cc3)nc2s1
[3] CCc1cc2c(=O)oc(-c3ccc(Br)cc3)nc2s1
[4] Cc1sc2nc(-c3ccco3)oc(=O)c2c1C
[5] COc1cc2nc(-c3ccc([N+](=O)[O-])cc3Cl)oc(=O)c2cc1OC
Parameters: sort_by = IC50; order = desc; input = items above. Your task in answering is to list the labels in the requested order. 4, 3, 5, 2, 1

====

- target_of_assay: Recombinant active human SCCE (Homo sapiens, UniProt P49862)
- Construct: made in house; host or cells: murine C127 cells transfected with a BPV vector (murine MT promoter)
- run_description: SCCE Inhibitor Test (chromogenic substrate S-2586, absorbance at 405 nm)
- Type: biochemical
- run_parameters: 1 h; 1 μM compound
assay_metric: remaining activity at 1 µM (%)

[[record]]
smiles_str = "O=c1oc(-c2ccccc2)nc2sc3c(c12)CCCC3"
target_of_assay = "Recombinant active human SCCE (Homo sapiens, UniProt P49862)"
assay_metric = "remaining activity at 1 µM"
value_observed = 45


[P] O=c1oc(-c2cccc3ccccc23)nc2sc3c(c12)CCCC3
[Q] Cc1cc(-c2nc3cc(Cl)ccc3c(=O)o2)ccc1[N+](=O)[O-]
Kindly identify which of P and Q has the larger recorded remaining activity at 1 µM value. I would appreciate it if you answered with the label of your choice. Q

====

- target_of_assay: Recombinant active human SCCE (Homo sapiens, UniProt P49862)
- Construct: made in house; host or cells: murine C127 cells transfected with a BPV vector (murine MT promoter)
- run_description: SCCE Inhibitor Test (chromogenic substrate S-2586, absorbance at 405 nm)
- Assay type: biochemical
- run_parameters: 10 min preincubation, 1 mM S-2586, 60 min, 37° C, pH 7.2
assay_metric: IC50 (nM)

Below: 6 compounds and their reported IC50.
[[record]]
compound = "Cc1cc2c(=O)oc(-c3cccc4ccccc34)nc2s1"
assay_metric = "IC50"
value_observed = 50

[[record]]
compound = "CCc1cc2c(=O)oc(-c3ccccc3C)nc2s1"
assay_metric = "IC50"
value_observed = 150

[[record]]
compound = "O=c1oc(-c2ccco2)nc2sc3c(c12)CCC3"
assay_metric = "IC50"
value_observed = 200

[[record]]
compound = "Cc1cc(-c2nc3cc(Cl)ccc3c(=O)o2)ccc1[N+](=O)[O-]"
assay_metric = "IC50"
value_observed = 2000

[[record]]
compound = "COc1cc2nc(-c3ccccc3I)oc(=O)c2cc1OC"
assay_metric = "IC50"
value_observed = 100

[[record]]
compound = "O=c1oc(-c2ccccc2)nc2sc3c(c12)CCCC3"
assay_metric = "IC50"
value_observed = 700


[P] O=c1oc(-c2ccccc2)nc2ccsc12
[Q] O=c1nc(-c2ccco2)oc2ccc(Cl)cc12
Kindly identify which of P and Q has the larger recorded IC50 value. I would appreciate it if you answered with the label of your choice. P

[P] O=c1oc(-c2cccc3ccccc23)nc2sc3c(c12)CCCC3
[Q] O=c1oc(-c2ccccc2O)nc2ccccc12
Hi! Which is lower in terms of IC50, the first one P or the second one Q ? I would appreciate it if you answered with the label of your choice. P

[A] COc1cc2nc(-c3ccc(NC(C)=O)cc3)oc(=O)c2cc1OC
[B] O=c1oc(-c2ccccc2)nc2ccccc12 [Compound I-1, 2-Phenyl-benzo[d][1,3]oxazin-4-one]
[C] O=c1oc(-c2cc([N+](=O)[O-])ccc2Cl)nc2ccccc12
[D] O=c1oc(-c2cccs2)nc2sc3c(c12)CCC3
[E] O=c1oc(-c2ccc(F)cc2)nc2ccsc12
Ascending sort, IC50. Your task in answering is to list the labels in the requested order. D, C, E, B, A
(D: 300 nM, C: 500 nM, E: 1000 nM, B: 2000 nM, A: 5000 nM)

[1] O=c1oc(-c2cccs2)nc2ccccc12
[2] O=c1oc(-c2ccccc2F)nc2sc3c(c12)CCCC3
[3] O=c1oc(-c2cccs2)nc2cc(Cl)ccc12
Ascending sort, IC50. Your task in answering is to list the labels in the requested order. 2, 3, 1

[1] CC(=O)Oc1ccc(-c2nc3ccccc3c(=O)o2)cc1
[2] CN(C)c1nc2cc(Cl)cc(Cl)c2c(=O)o1
[3] O=c1oc(-c2ccc(F)cc2)nc2sc3c(c12)CCC3
[4] CCc1cc2c(=O)oc(-c3ccccc3F)nc2s1
Highest IC50 first, then in falling order down to the smallest. Your task in answering is to list the labels in the requested order. 1, 2, 3, 4

[A] O=c1oc(-c2ccncc2)nc2ccccc12 [Compound I-8, 2-Pyridin-4-yl-benzo[d][1,3]oxazin-4-one]
[B] CCc1ccc(-c2nc3cc(Cl)ccc3c(=O)o2)cc1
[C] COc1ccccc1-c1nc2sc3c(c2c(=O)o1)CCCC3
Ascending sort, IC50. Your task in answering is to list the labels in the requested order. C, B, A
(C: 70 nM, B: 2000 nM, A: 5000 nM)

[A] O=c1nc(-c2ccccc2Cl)oc2ccccc12
[B] O=c1oc(-c2ccncc2)nc2sc3c(c12)CCCCC3
Hi! Which is lower in terms of IC50, the first one A or the second one B ? I would appreciate it if you answered with the label of your choice. B
(B: 2000 nM, A: 4000 nM)

====

- target_of_assay: Recombinant active human SCCE (Homo sapiens)
- Construct: made in house; host or cells: murine C127 cells transfected with a BPV vector (murine MT promoter)
- run_description: SCCE Inhibitor Test (chromogenic substrate S-2586, absorbance at 405 nm)
- Format: biochemical
- run_parameters: 1 h; 1 μM compound
assay_metric: remaining activity at 1 µM (%)

[[record]]
smiles_str = "Cc1sc2nc(-c3ccco3)oc(=O)c2c1C"
target_of_assay = "Recombinant active human SCCE (Homo sapiens)"
value_observed = 50


[P] COc1cccc(-c2nc3sc4c(c3c(=O)o2)CCCC4)c1
[Q] CCc1ccc(-c2nc3cc(Cl)ccc3c(=O)o2)cc1
Hi! Which is lower in terms of remaining activity at 1 µM, the first one P or the second one Q ? I would appreciate it if you answered with the label of your choice. Q
